pIC50 values, listed per item
# System: HC-1
# METHOD NOTES: 72-hour cell proliferation assay (Cell Titer Glo)
# Type: cell-based
# MEASUREMENT PARAMETERS: HC-1 (MZL), single agent, 72 h
Structures can show the parent of a compound that is named as a salt.
// returns pIC50 (minus log10 of molar concentration), number only

1) COc1c(OCCCN2CCOCC2)ccc2c1N=C(NC(=O)c1cnc(N)nc1)N1CCN=C21 [copanlisib, dihydrochloride]; 6.74

# query: pIC50 of entry CC(=O)c1c(C)c2cnc(Nc3ccc(N4CCNCC4)cn3)nc2n(C2CCCC2)c1=O [palbociclib, reference compound] 5.64

---

pIC50 values, listed per item
# Test system: HAIR-M
# METHOD NOTES: 72-hour cell proliferation assay (Cell Titer Glo)
# Type: cell-based
# MEASUREMENT PARAMETERS: HAIR-M (MZL), single agent, 72 h
Counter-ions that a name gives are not always drawn.
// returns pIC50 (minus log10 of molar concentration), number only

Below: 2 compounds and their reported pIC50.
1) COc1c(OCCCN2CCOCC2)ccc2c1N=C(NC(=O)c1cnc(N)nc1)N1CCN=C21 [copanlisib, dihydrochloride]; 8.27
2) CC1(C)CCC(CN2CCN(c3ccc(C(=O)NS(=O)(=O)c4ccc(NCC5CCOCC5)c([N+](=O)[O-])c4)c(Oc4cnc5[nH]ccc5c4)c3)CC2)=C(c2ccc(Cl)cc2)C1 [venetoclax, reference compound]; 6.59

--- query ---
# query: pIC50 of entry CC(=O)c1c(C)c2cnc(Nc3ccc(N4CCNCC4)cn3)nc2n(C2CCCC2)c1=O [palbociclib, reference compound] 5.81

---

# Test system: SSK41
# METHOD NOTES: 72-hour cell proliferation assay (Cell Titer Glo)
# Format: cell-based
# MEASUREMENT PARAMETERS: SSK41 (SMZL), single agent, 72 h
Where a name gives a salt, the structure may show the parent alone.
OBSERVABLE: IC50
Reply with a number, then the unit it belongs to.

1) CC(=O)c1c(C)c2cnc(Nc3ccc(N4CCNCC4)cn3)nc2n(C2CCCC2)c1=O [palbociclib, reference compound]; 2310 nM
2) CC1(C)CCC(CN2CCN(c3ccc(C(=O)NS(=O)(=O)c4ccc(NCC5CCOCC5)c([N+](=O)[O-])c4)c(Oc4cnc5[nH]ccc5c4)c3)CC2)=C(c2ccc(Cl)cc2)C1 [venetoclax, reference compound]; 6230 nM

--- query ---
# query: IC50 of entry COc1c(OCCCN2CCOCC2)ccc2c1N=C(NC(=O)c1cnc(N)nc1)N1CCN=C21 [copanlisib, dihydrochloride] 50.8 nM

---

IC50 values, listed per item
# System: VL51
# METHOD NOTES: 72-hour cell proliferation assay (Cell Titer Glo)
# Assay type: cell-based
# MEASUREMENT PARAMETERS: Homo sapiens; VL51 (SMZL), single agent, 72 h
# Method: Combinations of Copanlisib and ABT-199 or Palbociclib in a Panel Cell Lines Assessed by the Combination Index (CI) of a 72-Hour Cell Proliferation Assay The effect of combinations of the present invention was evaluated using combination index isobologram analysis for in vitro assessment. […] The mapping IC50 values were calculated. The corresponding component concentrations of copanlisib and ABT-199 or Palbociclib were calculated and used for plotting isobolograms. […]
Where a name gives a salt, the structure may show the parent alone.
Unit nM implied. Number only.

1) CC1(C)CCC(CN2CCN(c3ccc(C(=O)NS(=O)(=O)c4ccc(NCC5CCOCC5)c([N+](=O)[O-])c4)c(Oc4cnc5[nH]ccc5c4)c3)CC2)=C(c2ccc(Cl)cc2)C1 [venetoclax, reference compound]; 1490

--- query ---
# query: IC50 of entry COc1c(OCCCN2CCOCC2)ccc2c1N=C(NC(=O)c1cnc(N)nc1)N1CCN=C21 [copanlisib, dihydrochloride] 20.7
